Test system: NCI-H1299
Assay: Antiproliferative activity against human NCI-H1299 cells after 72 hrs by cell titer glo assay
Format: functional, cell-based
Conditions: NCI-H1299, 72 h
pEC50: −log10 of the molar value.
List of pEC50 values.
READOUT KIND: pEC50

[[record]]
chemical_structure = "C=Cc1cn(-c2c(Cl)cccc2Cl)c(=O)c2cnc(Nc3ccc4c(c3)CN(C)CC43CC3)nc12"
relation_sign = "="
data_value = 7.10

[[record]]
chemical_structure = "CN1Cc2cc(Nc3ncc4c(=O)c(-c5c(Cl)cccc5Cl)c[nH]c4n3)ccc2C2(CC2)C1"
relation_sign = "="
data_value = 6.48

[[record]]
chemical_structure = "CN1Cc2cc(Nc3ncc4c(=O)n(-c5c(Cl)cccc5Cl)cc(C(F)F)c4n3)ccc2C2(CC2)C1"
relation_sign = "="
data_value = 6.85

[[record]]
chemical_structure = "CN1CCN(c2ccc(Nc3ncc4c(=O)c(-c5c(Cl)cccc5Cl)cn(C5COC5)c4n3)cc2)CC1"
relation_sign = "="
data_value = 5.76

[[record]]
chemical_structure = "CN(C)CCn1cc(-c2c(Cl)cccc2Cl)c(=O)c2cnc(Nc3ccc(N4CCN(C)CC4)cc3)nc21"
relation_sign = "="
data_value = 5.12

[[record]]
chemical_structure = "CN1Cc2cc(Nc3ncc4c(=O)n(-c5c(Cl)cccc5Cl)cc(CO)c4n3)ccc2C2(CC2)C1"
relation_sign = "="
data_value = 7.22

[[record]]
chemical_structure = "CN1CCN(c2ccc(Nc3ncc4c(=O)c(-c5c(Cl)cccc5Cl)cn(CC(C)(C)O)c4n3)cc2)CC1"
relation_sign = "<"
data_value = 5.00

[[record]]
chemical_structure = "CCn1cc(-c2c(Cl)cccc2Cl)c(=O)c2cnc(Nc3ccc4c(c3)CN(C)CC43CC3)nc21"
relation_sign = "="
data_value = 6.68

[[record]]
chemical_structure = "CN1CCN(c2ccc(Nc3ncc4c(=O)c(-c5c(Cl)cccc5Cl)cn(-c5ccccc5)c4n3)cc2)CC1"
relation_sign = "="
data_value = 6.30

[[record]]
chemical_structure = "Cc1cn(-c2c(Cl)cccc2Cl)c(=O)c2cnc(Nc3ccc4c(c3)CN(C)CC43CC3)nc12"
relation_sign = "="
data_value = 6.89

[[record]]
chemical_structure = "CN1Cc2cc(Nc3ncc4c(=O)c(-c5c(Cl)cccc5Cl)cn(C5CC5)c4n3)ccc2C2(CC2)C1"
relation_sign = "="
data_value = 6.41

[[record]]
chemical_structure = "CN1CCN(c2ccc(Nc3ncc4c(=O)c(-c5c(Cl)cccc5Cl)cn(C5CC5)c4n3)cc2)CC1"
relation_sign = "="
data_value = 6.34

[[record]]
chemical_structure = "CN1CCN(c2ccc(Nc3ncc4c(=O)c(-c5c(Cl)cccc5Cl)cn(C)c4n3)cc2)CC1"
relation_sign = "="
data_value = 6.28

[[record]]
chemical_structure = "CN1Cc2cc(Nc3ncc4c(=O)c(-c5c(Cl)cccc5Cl)cn(C)c4n3)ccc2C2(CC2)C1"
relation_sign = "="
data_value = 7.00


----------
Experiment: AUC in po dosed mouse
Format: ADME, organism-based
Conditions: in vivo
READOUT KIND: AUC (µM·h)

[[record]]
chemical_structure = "CN1Cc2cc(Nc3ncc4c(=O)c(-c5c(Cl)cccc5Cl)cn(C)c4n3)ccc2C2(CC2)C1"
data_value = 6.2


----------
Biological target: Wee1-like protein kinase (Homo sapiens)
Test: Inhibition of WEE1 in human NCI-H1299 cells assessed as reduction in Cdc2 phosphorylation at Tyr15 residue measured after 6 hrs by ELISA
pEC50: −log10 of the molar value.
READOUT KIND: pEC50

[[record]]
chemical_structure = "CCn1cc(-c2c(Cl)cccc2Cl)c(=O)c2cnc(Nc3ccc4c(c3)CN(C)CC43CC3)nc21"
data_value = 7.72

[[record]]
chemical_structure = "CN1CCN(c2ccc(Nc3ncc4c(=O)c(-c5c(Cl)cccc5Cl)cn(C)c4n3)cc2)CC1"
data_value = 7.10

[[record]]
chemical_structure = "CN1Cc2cc(Nc3ncc4c(=O)n(-c5c(Cl)cccc5Cl)cc(CO)c4n3)ccc2C2(CC2)C1"
data_value = 7.60

[[record]]
chemical_structure = "CN1Cc2cc(Nc3ncc4c(=O)c(-c5c(Cl)cccc5Cl)cn(C5CC5)c4n3)ccc2C2(CC2)C1"
data_value = 7.51

[[record]]
chemical_structure = "CN1Cc2cc(Nc3ncc4c(=O)c(-c5c(Cl)cccc5Cl)c[nH]c4n3)ccc2C2(CC2)C1"
data_value = 7.54

[[record]]
chemical_structure = "Cc1cn(-c2c(Cl)cccc2Cl)c(=O)c2cnc(Nc3ccc4c(c3)CN(C)CC43CC3)nc12"
data_value = 7.55


----------
Assay: Oral bioavailability in mouse
Format: ADME, organism-based
Settings: in vivo
READOUT KIND: bioavailability (%)

[[record]]
chemical_structure = "CN1Cc2cc(Nc3ncc4c(=O)c(-c5c(Cl)cccc5Cl)cn(C)c4n3)ccc2C2(CC2)C1"
readout_kind = "bioavailability"
data_value = 44


----------
Molecular target: Wee1-like protein kinase (Homo sapiens)
Assay: Inhibition of WEE1 in human NCI-H1299 cells assessed as reduction in Cdc2 phosphorylation at Tyr15 residue measured after 6 hrs by ELISA
pEC50: −log10 of the molar value.
List of pEC50 values.
READOUT KIND: pEC50

[[record]]
chemical_structure = "CN1Cc2cc(Nc3ncc4c(=O)c(-c5c(Cl)cccc5Cl)cn(C)c4n3)ccc2C2(CC2)C1"
readout_kind = "pEC50"
data_value = 7.96

[[record]]
chemical_structure = "CN1CCN(c2ccc(Nc3ncc4c(=O)c(-c5c(Cl)cccc5Cl)cn(-c5ccccc5)c4n3)cc2)CC1"
readout_kind = "pEC50"
data_value = 6.61

[[record]]
chemical_structure = "CN1CCN(c2ccc(Nc3ncc4c(=O)c(-c5c(Cl)cccc5Cl)cn(C5CC5)c4n3)cc2)CC1"
readout_kind = "pEC50"
data_value = 7.66

[[record]]
chemical_structure = "CN(C)CCn1cc(-c2c(Cl)cccc2Cl)c(=O)c2cnc(Nc3ccc(N4CCN(C)CC4)cc3)nc21"
readout_kind = "pEC50"
data_value = 5.55

[[record]]
chemical_structure = "CN1CCN(c2ccc(Nc3ncc4c(=O)c(-c5c(Cl)cccc5Cl)cn(CC(C)(C)O)c4n3)cc2)CC1"
readout_kind = "pEC50"
data_value = 5.40

[[record]]
chemical_structure = "C=Cc1cn(-c2c(Cl)cccc2Cl)c(=O)c2cnc(Nc3ccc4c(c3)CN(C)CC43CC3)nc12"
readout_kind = "pEC50"
data_value = 7.68

[[record]]
chemical_structure = "CN1CCN(c2ccc(Nc3ncc4c(=O)c(-c5c(Cl)cccc5Cl)cn(C5COC5)c4n3)cc2)CC1"
readout_kind = "pEC50"
data_value = 6.49

[[record]]
chemical_structure = "CN1Cc2cc(Nc3ncc4c(=O)n(-c5c(Cl)cccc5Cl)cc(C(F)F)c4n3)ccc2C2(CC2)C1"
readout_kind = "pEC50"
data_value = 7.74


----------
Target: Wee1-like protein kinase (Homo sapiens, UniProt P30291)
Sequence (P30291 whole entry): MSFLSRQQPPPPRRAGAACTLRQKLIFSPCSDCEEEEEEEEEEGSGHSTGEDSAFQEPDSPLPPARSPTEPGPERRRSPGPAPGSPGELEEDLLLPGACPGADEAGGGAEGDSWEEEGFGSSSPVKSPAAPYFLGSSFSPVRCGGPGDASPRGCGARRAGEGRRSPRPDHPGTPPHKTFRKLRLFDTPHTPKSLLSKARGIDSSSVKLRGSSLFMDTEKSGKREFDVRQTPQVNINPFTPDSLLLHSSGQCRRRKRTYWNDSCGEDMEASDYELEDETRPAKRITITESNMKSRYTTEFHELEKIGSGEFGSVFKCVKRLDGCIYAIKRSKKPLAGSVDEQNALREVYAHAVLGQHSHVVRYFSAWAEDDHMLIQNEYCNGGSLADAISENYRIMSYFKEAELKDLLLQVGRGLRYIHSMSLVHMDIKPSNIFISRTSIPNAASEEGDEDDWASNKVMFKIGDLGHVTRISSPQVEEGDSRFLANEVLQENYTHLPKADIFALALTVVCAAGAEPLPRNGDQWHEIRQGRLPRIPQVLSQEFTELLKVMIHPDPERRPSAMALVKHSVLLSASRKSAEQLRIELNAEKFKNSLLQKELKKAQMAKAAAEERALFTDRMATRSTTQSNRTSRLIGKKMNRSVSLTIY
pKi: −log10 of the molar value.
Could you label it satisfied if measured pKi is 9 or higher, and not satisfied otherwise?

[[record]]
chemical_structure = "Cc1cn(-c2c(Cl)cccc2Cl)c(=O)c2cnc(Nc3ccc4c(c3)CN(C)CC43CC3)nc12"
measured_target = "Wee1-like protein kinase (Homo sapiens, UniProt P30291)"
answer_label = "satisfied"

[[record]]
chemical_structure = "CN(C)CCn1cc(-c2c(Cl)cccc2Cl)c(=O)c2cnc(Nc3ccc(N4CCN(C)CC4)cc3)nc21"
measured_target = "Wee1-like protein kinase (Homo sapiens, UniProt P30291)"
answer_label = "not satisfied"

[[record]]
chemical_structure = "C=Cc1cn(-c2c(Cl)cccc2Cl)c(=O)c2cnc(Nc3ccc4c(c3)CN(C)CC43CC3)nc12"
measured_target = "Wee1-like protein kinase (Homo sapiens, UniProt P30291)"
answer_label = "satisfied"


----------
Assay: Half life in iv dosed mouse
Type: ADME, organism-based
Settings: in vivo
READOUT KIND: half-life (min)

[[record]]
chemical_structure = "CN1Cc2cc(Nc3ncc4c(=O)c(-c5c(Cl)cccc5Cl)cn(C)c4n3)ccc2C2(CC2)C1"
readout_kind = "half-life"
data_value = 162


----------
Test: Clearance in mouse microsomes
Format: ADME, Microsome
READOUT KIND: CLint scaled (mL/min/kg)

[[record]]
chemical_structure = "CN1CCN(c2ccc(Nc3ncc4c(=O)c(-c5c(Cl)cccc5Cl)cn(CC(C)(C)O)c4n3)cc2)CC1"
data_value = 482

[[record]]
chemical_structure = "CN1Cc2cc(Nc3ncc4c(=O)n(-c5c(Cl)cccc5Cl)cc(CO)c4n3)ccc2C2(CC2)C1"
data_value = 320

[[record]]
chemical_structure = "C=Cc1cn(-c2c(Cl)cccc2Cl)c(=O)c2cnc(Nc3ccc4c(c3)CN(C)CC43CC3)nc12"
data_value = 463

[[record]]
chemical_structure = "CN1CCN(c2ccc(Nc3ncc4c(=O)c(-c5c(Cl)cccc5Cl)cn(C5COC5)c4n3)cc2)CC1"
data_value = 582

[[record]]
chemical_structure = "CN(C)CCn1cc(-c2c(Cl)cccc2Cl)c(=O)c2cnc(Nc3ccc(N4CCN(C)CC4)cc3)nc21"
data_value = 1970

[[record]]
chemical_structure = "CN1Cc2cc(Nc3ncc4c(=O)n(-c5c(Cl)cccc5Cl)cc(C(F)F)c4n3)ccc2C2(CC2)C1"
data_value = 753

[[record]]
chemical_structure = "CN1Cc2cc(Nc3ncc4c(=O)c(-c5c(Cl)cccc5Cl)cn(C5CC5)c4n3)ccc2C2(CC2)C1"
data_value = 458

[[record]]
chemical_structure = "CN1Cc2cc(Nc3ncc4c(=O)n(-c5c(F)cccc5Cl)c5nccn5c4n3)ccc2C(C)(C)C1"
data_value = 635

[[record]]
chemical_structure = "CN1Cc2cc(Nc3ncc4c(=O)c(-c5c(Cl)cccc5Cl)cn(C)c4n3)ccc2C2(CC2)C1"
data_value = 413

[[record]]
chemical_structure = "Cc1cn(-c2c(Cl)cccc2Cl)c(=O)c2cnc(Nc3ccc4c(c3)CN(C)CC43CC3)nc12"
data_value = 727

[[record]]
chemical_structure = "CN1Cc2cc(Nc3ncc4c(=O)c(-c5c(Cl)cccc5Cl)c[nH]c4n3)ccc2C2(CC2)C1"
data_value = 532

[[record]]
chemical_structure = "CN1CCN(c2ccc(Nc3ncc4c(=O)c(-c5c(Cl)cccc5Cl)cn(C5CC5)c4n3)cc2)CC1"
data_value = 582

[[record]]
chemical_structure = "CN1CCN(c2ccc(Nc3ncc4c(=O)c(-c5c(Cl)cccc5Cl)cn(C)c4n3)cc2)CC1"
data_value = 270

